# Tested on: HT-29
# measurement protocol: Antiproliferative activity against human HT-29 cells after 72 hrs by MTS assay
# Assay type: functional, cell-based
# assay context: HT-29, 72 h
readout kind: pIC50
# pIC50 = -log10(concentration in molar units)

The cases that follow already have their pIC50 on record.
- smiles repr: "COc1ccc(C(=O)c2cc3c(OC)c(OC)c(OC)cc3[nH]2)cc1"
  assay target: "HT-29"
  measurement: 5.91
- smiles repr: "COc1ccc(/C=C\\c2cc(OC)c(OC)c(OC)c2)cc1O"
  assay target: "HT-29"
  measurement: 7.89
- smiles repr: "COc1cc2[nH]c(C(=O)c3ccc(C)c(N)c3)cc2c(OC)c1OC"
  assay target: "HT-29"
  measurement: 6.00

What the record says about COc1cc2[nH]c(C(=O)c3ccc(C)cc3)cc2c(OC)c1OC : pIC50 is 5.96

Attribution: ChEMBL document CHEMBL1649381
